# target under test: human GLP-1 receptor (human, UniProt P43220 24-463)
# assay comment: cell-based or functional assay
Bridge positions count the residues as written; N and C are the ends. Square brackets hold non-standard residues; d marks the D form. Ends that are not written are not given here. Aib = CC(C)(N)C(=O)O
assay endpoint: In Vitro Activity Compared to Native Peptide (%) vs. GLP-1 (relative titer from cAMP EC50)

{"columns": ["binder", "numeric result"],
 "data": [
  ["H[Aib]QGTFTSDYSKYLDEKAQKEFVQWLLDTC (bridge 16-20; not fully specified (bridges)) [trigonal agonist of SEQ ID NO: 3]", 142],
  ["Y[Aib]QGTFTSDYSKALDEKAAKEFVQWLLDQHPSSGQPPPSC (bridge 16-20; not fully specified (bridges)) [trigonal agonist of SEQ ID NO: 44]", 42.2],
  ["Y[Aib]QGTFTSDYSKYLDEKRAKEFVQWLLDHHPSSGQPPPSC (lactam 16-20) [trigonal agonist of SEQ ID NO: 9]", 33.9],
  ["H[Aib]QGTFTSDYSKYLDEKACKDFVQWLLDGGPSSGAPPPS (lactam 16-20) [trigonal agonist of SEQ ID NO: 5]", 151],
  ["Y[Aib]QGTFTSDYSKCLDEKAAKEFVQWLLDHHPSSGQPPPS (bridge 16-20; not fully specified (bridges)) [trigonal agonist of SEQ ID NO: 23]", 27.9]
]}
